Biological target: Acylglycerol kinase, mitochondrial (Homo sapiens)
Sequence (Q53H12 whole entry): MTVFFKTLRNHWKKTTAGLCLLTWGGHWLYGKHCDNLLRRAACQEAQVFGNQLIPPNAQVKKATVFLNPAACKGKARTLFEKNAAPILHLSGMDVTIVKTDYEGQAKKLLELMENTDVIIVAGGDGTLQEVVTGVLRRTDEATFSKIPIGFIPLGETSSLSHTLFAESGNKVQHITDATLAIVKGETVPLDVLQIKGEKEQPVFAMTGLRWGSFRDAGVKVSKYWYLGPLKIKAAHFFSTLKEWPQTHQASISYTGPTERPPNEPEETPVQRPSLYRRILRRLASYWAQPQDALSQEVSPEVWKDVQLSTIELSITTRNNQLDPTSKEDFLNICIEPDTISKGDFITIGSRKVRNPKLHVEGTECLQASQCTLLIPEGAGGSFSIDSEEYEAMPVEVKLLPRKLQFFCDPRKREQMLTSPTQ
Assay: Inhibition of AGK in human HeLa cells lysate pre incubated for 15 mins followed by ATP acyl phosphate probe addition and measured after 10 mins by LC-MS/MS analysis
Quantity name: IC50

Exam item: Data request, read-out IC50, for CCOc1cc(N2CCC(O)CC2)ccc1Nc1ncc2c(n1)N(C)c1ccccc1C(=O)N2C
Marked response: > 50 µM

----------
Target: Peripheral plasma membrane protein CASK (Homo sapiens)
Sequence (O14936 whole entry): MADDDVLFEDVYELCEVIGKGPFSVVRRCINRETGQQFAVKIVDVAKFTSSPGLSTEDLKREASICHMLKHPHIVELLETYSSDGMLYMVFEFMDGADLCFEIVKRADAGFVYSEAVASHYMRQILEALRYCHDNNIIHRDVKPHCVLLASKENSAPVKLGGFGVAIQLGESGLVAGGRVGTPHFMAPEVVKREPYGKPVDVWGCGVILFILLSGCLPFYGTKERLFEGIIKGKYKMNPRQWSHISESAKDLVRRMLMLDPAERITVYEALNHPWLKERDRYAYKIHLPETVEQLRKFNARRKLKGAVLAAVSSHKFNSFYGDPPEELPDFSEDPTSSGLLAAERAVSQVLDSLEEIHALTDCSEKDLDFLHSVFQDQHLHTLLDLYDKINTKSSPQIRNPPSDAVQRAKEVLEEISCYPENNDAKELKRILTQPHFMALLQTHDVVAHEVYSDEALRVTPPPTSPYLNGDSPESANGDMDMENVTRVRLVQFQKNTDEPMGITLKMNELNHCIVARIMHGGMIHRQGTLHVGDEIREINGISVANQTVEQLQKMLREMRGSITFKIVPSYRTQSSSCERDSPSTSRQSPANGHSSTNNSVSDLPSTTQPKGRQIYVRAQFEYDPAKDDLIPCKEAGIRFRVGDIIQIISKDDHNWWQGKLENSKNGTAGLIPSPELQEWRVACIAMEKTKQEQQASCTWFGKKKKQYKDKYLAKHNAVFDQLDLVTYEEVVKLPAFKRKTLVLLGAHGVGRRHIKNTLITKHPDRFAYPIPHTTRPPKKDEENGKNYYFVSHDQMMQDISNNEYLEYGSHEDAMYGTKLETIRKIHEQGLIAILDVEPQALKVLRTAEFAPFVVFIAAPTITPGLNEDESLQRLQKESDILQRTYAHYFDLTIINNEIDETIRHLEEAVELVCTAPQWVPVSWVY
Assay: Inhibition of CASK in human HeLa cells lysate pre incubated for 15 mins followed by ADP acyl phosphate probe addition and measured after 10 mins by LC-MS/MS analysis
Quantity name: IC50

Exam item: Data request, read-out IC50, for CCOc1cc(N2CCC(O)CC2)ccc1Nc1ncc2c(n1)N(C)c1ccccc1C(=O)N2C
Marked response: > 50 µM
